These measurements were taken from patent US20250163162A1.

The reader will find reported koff values listed item by item below.
study.system: T1, cIL2Rg-Fc (lot#P210115SV5) (cynomolgus, UniProt A0A2K5VGJ6 23-262)
T1 construct: Named only by lot number; also called cynomolgus IL2Rg-Fc; not shown: Fc of the fusion protein
T1 sequence: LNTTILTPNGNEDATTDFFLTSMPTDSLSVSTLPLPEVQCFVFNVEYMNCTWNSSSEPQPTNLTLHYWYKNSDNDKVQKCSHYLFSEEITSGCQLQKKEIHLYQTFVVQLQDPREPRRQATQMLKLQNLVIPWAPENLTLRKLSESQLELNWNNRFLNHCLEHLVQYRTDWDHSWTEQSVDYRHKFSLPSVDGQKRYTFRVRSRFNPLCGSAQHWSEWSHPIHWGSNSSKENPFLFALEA
method.description: SPR (Biacore T200), Fc-fused ligand captured on chip, dual VHH as analyte, 1:1 Langmuir fit
Report only the number, with the unit s⁻¹ understood.

The following binders have reported results that may help.
binder: DR465(DR240-DR231) (bispecific antibody, Anti-hIL10Ra/hIL2Rg dual VHH with ASH6 handle; also called H1) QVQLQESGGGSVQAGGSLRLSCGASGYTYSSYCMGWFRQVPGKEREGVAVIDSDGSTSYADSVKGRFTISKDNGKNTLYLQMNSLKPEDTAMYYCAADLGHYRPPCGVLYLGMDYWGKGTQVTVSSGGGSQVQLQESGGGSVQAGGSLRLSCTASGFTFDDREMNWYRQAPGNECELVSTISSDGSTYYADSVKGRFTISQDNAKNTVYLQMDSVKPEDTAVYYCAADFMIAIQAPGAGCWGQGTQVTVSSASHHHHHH
koff [s⁻¹]: 0.0022

binder: DR474(DR241-DR234) (bispecific antibody, Anti-hIL10Ra/hIL2Rg dual VHH with ASH6 handle; also called H9) QVQLQESGGGSVQAGGSLRLSCAASGYSNCSYDMTWYRQAPGKEREFVSAIHSDGSTRYADSVKGRFFISQDNAKNTVYLQMNSLKPEDTAMYYCKTDPLHCRAHGGSWYSVRANYWGQGTQVTVSSGGGSQVQLQESGGGSVQAGGSLRLSCVASGYTFSSYCMGWFRQAPGKEREGVAALGGGSTYYADSVKGRFTISQDNAKNTLYLQMNSLKPEDTAMYYCAAAWVACLEFGGSWYDLARYKHWGQGTQVTVSSASHHHHHH
koff [s⁻¹]: 0.00093

Okay, now this binder:
Notebook: DR471(DR241-DR231) (bispecific antibody, Anti-hIL10Ra/hIL2Rg dual VHH with ASH6 handle; also called G3) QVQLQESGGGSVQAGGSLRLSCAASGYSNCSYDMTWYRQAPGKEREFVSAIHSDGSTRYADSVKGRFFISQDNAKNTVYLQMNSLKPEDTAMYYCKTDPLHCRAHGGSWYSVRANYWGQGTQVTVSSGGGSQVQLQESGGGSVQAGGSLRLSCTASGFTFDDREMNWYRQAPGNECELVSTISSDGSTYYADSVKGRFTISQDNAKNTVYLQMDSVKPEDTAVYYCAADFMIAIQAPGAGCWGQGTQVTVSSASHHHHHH , koff read as 0.0048
